Data provenance: patent US20170305882A1

targetEntity: (recombinant) catalytic domain of human Bub1 (amino acids 704-1085) (Homo sapiens, UniProt O43683)
Construct: catalytic domain of human Bub1 (amino acids 704-1085); 6xHis (N); made in house; host or cells: Hi5 insect cells
experimentalDetails: Equilibrium probe competition assay (TR-FRET kinase binding assay)
conditionParameters: Time 120 min; read-out: IC50 (Assay 5, probe competition)
pIC50: −log10 of the molar value.
// reported pIC50 per item
assayReadout: pIC50

>>> print(df.to_string())
                                entrysmiles  assayreadout  measurement
0  CCOc1cc(F)c(Cn2nc(-c3ncc(OCCCO)c(Nc4ccnc(NC(C)=O)c4)n3)c3ccccc32)c(F)c1         pIC50         9.70
1  CCOc1cc(F)c(Cn2nc(-c3ncc(OCCCOC(=O)[C@H](C)NC(=O)[C@@H](N)CCCCN)c(Nc4ccnc(C(F)F)c4)n3)c3ccccc32)c(F)c1         pIC50         8.89
2  CCOc1cc(F)c(Cn2nc(-c3ncc(OCCCOC(=O)[C@H](C)NC(=O)[C@H](N)CCCCN)c(Nc4ccnc(NC(C)=O)c4)n3)c3ccccc32)c(F)c1         pIC50         9.60
3  CCOc1cc(F)c(Cn2nc(-c3ncc(OCCCOC(=O)[C@H](C)NC(=O)[C@@H](N)CCCNC(=N)N)c(Nc4ccnc(NC(C)=O)c4)n3)c3ccccc32)c(F)c1         pIC50         9.27
4  CCOc1cc(F)c(Cn2nc(-c3ncc(OCCCO)c(Nc4ccncc4Cl)n3)c3ccccc32)c(F)c1         pIC50         9.42
5  CCOc1cc(F)c(Cn2nc(-c3ncc(OCCCOC(=O)[C@H](C)NC(=O)[C@@H](N)CCCCN)c(Nc4ccncc4Cl)n3)c3ccccc32)c(F)c1         pIC50         9.34

###

targetEntity: (recombinant) catalytic domain of human Bub1 (amino acids 704-1085) (Homo sapiens, UniProt O43683)
Construct: catalytic domain of human Bub1 (amino acids 704-1085); 6xHis (N); made in house; host or cells: Hi5 insect cells
experimentalDetails: Equilibrium probe competition assay (TR-FRET kinase binding assay)
conditionParameters: Time 1440 min; read-out: IC50 (Assay 5, probe competition)
Protocol: Equilibrium Probe Competition Assay: […] In a typical assay 11 different concentrations of each compound (0.1 nM, 0.33 nM, 1.1 nM, 3.8 nM, 13 nM, 44 nM, ˜0.15 μM, ˜0.51 μM, ˜1.7 μM, 5.9 μM and 20 μM) were tested in duplicate within the same microtiter plate. […] IC50 values were calculated by fitting the normalized inhibition data to a 4-parameter logistic equation (Minimum, Maximum, IC50, Hill; Y=Max+(Min−Max)/(1+(X/IC50)Hill)).
assayReadout: IC50 (nM)

>>> print(df.to_string())
                                entrysmiles  measurement
0  CCOc1cc(F)c(Cn2nc(-c3ncc(OCCCO)c(Nc4ccnc(NC(C)=O)c4)n3)c3ccccc32)c(F)c1        0.098
1  CCOc1cc(F)c(Cn2nc(-c3ncc(OCCCOC(=O)[C@H](C)NC(=O)[C@@H](N)CCCCN)c(Nc4ccncc4Cl)n3)c3ccccc32)c(F)c1         0.25
2  CCOc1cc(F)c(Cn2nc(-c3ncc(OCCCO)c(Nc4ccncc4Cl)n3)c3ccccc32)c(F)c1          0.2
